meta.source: patent US20260125400A1

Some molecules, each annotated with its measured Dmax.
Molecular target: TYK2 (Homo sapiens, UniProt P29597)
Construct: Degradation of TYK2 in cells was quantitatively measured using Meso Scale Discovery (MSD) technology; endogenous in cells; host or cells: OCI-LY10
Sequence (P29597 whole entry): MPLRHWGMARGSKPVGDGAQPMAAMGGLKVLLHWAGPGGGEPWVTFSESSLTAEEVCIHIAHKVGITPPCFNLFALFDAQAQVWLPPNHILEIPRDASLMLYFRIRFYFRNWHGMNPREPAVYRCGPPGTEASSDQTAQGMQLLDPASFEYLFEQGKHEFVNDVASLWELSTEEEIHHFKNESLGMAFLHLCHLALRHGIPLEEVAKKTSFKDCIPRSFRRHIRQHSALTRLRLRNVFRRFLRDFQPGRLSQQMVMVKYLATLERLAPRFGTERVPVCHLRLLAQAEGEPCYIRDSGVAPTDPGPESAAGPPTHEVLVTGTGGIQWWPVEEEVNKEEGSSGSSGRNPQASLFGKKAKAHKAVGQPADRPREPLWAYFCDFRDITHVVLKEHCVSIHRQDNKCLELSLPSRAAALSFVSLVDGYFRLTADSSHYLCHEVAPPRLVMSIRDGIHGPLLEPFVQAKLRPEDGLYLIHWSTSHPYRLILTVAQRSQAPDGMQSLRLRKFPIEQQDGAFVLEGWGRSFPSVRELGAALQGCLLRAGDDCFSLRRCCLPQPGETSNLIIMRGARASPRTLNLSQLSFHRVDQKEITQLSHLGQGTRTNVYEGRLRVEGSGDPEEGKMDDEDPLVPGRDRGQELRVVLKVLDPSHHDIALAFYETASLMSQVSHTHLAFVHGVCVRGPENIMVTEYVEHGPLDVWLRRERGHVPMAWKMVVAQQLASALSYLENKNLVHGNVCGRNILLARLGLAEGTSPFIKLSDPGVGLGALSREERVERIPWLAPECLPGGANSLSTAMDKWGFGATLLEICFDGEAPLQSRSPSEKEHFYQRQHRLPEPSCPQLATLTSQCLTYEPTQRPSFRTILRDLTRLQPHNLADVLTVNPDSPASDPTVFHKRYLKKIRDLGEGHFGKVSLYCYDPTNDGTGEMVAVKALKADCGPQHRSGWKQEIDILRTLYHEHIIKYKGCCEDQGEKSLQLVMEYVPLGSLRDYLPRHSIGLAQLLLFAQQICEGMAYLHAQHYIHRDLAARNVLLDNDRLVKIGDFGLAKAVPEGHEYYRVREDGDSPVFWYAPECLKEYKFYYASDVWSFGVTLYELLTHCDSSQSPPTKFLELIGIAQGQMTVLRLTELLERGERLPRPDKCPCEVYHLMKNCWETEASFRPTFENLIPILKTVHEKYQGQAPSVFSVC
Assay: TYK2 MSD degradation in OCI-LY10 cells
Assay type: cell-based
Details: TYK2 degradation in OCI-LY10 cells, 4 to 24 hours incubation
Procedure: Example 7. TYK2 MSD Degradation Degradation of TYK2 in cells was quantitatively measured using Meso Scale Discovery (MSD) technology. OCI-LY10 cells were seeded in 96-well plates with a density of 0.4 million cells per well in 100 μl fresh media. […] The assay plates were then incubated at room temperature for 1 hour, washed 3 times with 150 μl/well TB ST buffer, and 150 μl/well MSD reading buffer (MSD, R92TC-2) were added. The plates were then analyzed by an MSD reader. […]

Example cases with answers are listed next.
MOLECULE	Dmax
CNc1cc(N2CCc3c(CN4CCC(CN5CCC6(CC5)CCN(C(=O)c5ccc(Cl)c(N7CCC(=O)NC7=O)c5)CC6)C(F)(F)C4)cccc32)nn2c(C(=O)N[C@@H]3CC[C@H]3OC)cnc12 (some centres unmarked)	> 90%
CNC(=O)c1cnc(Nc2ccc(C(=O)NCCOCCOCCOCCOCCN(C(=O)[C@H]3CCCN(c4cncc5ccccc45)C3)c3ccc(=O)n(CC(=O)OC)c3)cn2)cc1Nc1cccc(-c2ncccn2)c1OC	< 50%
CNc1cc(N2CCc3c(-c4ncc(CN5CC6(CCN(C(=O)c7cc(C)c(Cl)c(N8CCC(=O)NC8=O)c7)CC6(F)F)C5)cc4F)cccc32)nn2c(C(=O)N[C@@H]3C[C@@H]3F)cnc12	> 90%

// query Any idea what Dmax was measured for CNc1cc(N2CCc3c(-c4ncc(CN5CC6(CCN(C(=O)c7cc(Cl)c(C)c(N8CCC(=O)NC8=O)c7)CC6(F)F)C5)cc4F)cccc32)nn2c(C(=O)N[C@@H]3C[C@@H]3F)cnc12 ?
// result > 90%

// query Request the reported Dmax associated with CNC(=O)c1cnc(Nc2ccc(C(=O)NCCOCCOCCN(C(=O)[C@H]3CCCN(c4cncc5ccccc45)C3)c3ccc(=O)n(CC(=O)O)c3)cn2)cc1Nc1cccc(-c2ncccn2)c1OC
// result 50 to 75%
